Method summary: yeast display, Sf9 membrane polyspecificity reagent, FACS + sequencing; frameworks hold sequencing errors
Measurement type: polyreactivity (PSR sort gate)

{"Chain": "QVQLVESGGGLVQAGGSLRLSCAASGRTIITYAMGWYRQAPGKERELVAAINSTDGTSYADSVKGRFTISRDNAKNTVYLQMNSLKPEDTAVYYCARGTEVKSGISYRFYYWGQGTQVTVSS", "Test value": "low polyreactivity"}
{"Chain": "QVQLGETGGGLVQAGGSLRLSCAATGSIFRYNAMGWYRQAPGKERELVAAISGRGTSTYYADSVKGRFTISRDNAKNTVYLQMNSLKPEDTAVYYCAAVYFSSFLVEYYYWGQGTQVTVSS", "Test value": "high polyreactivity"}
{"Chain": "QVQLVESGGGLVQAGGSLRISCAASGSTFGGYVLGWYRPAPGKERELVAAISRSGASTYYADSVKGRFTISRDNAKNTVYLQMNSLKPEDTAVYYCAAYQARGLDYWGQGTQVTVSS", "Test value": "high polyreactivity"}
{"Chain": "QVQLVESGGGLFQAGGSLRLSCAASGSIFDVNAMGWYRQAPGKEREFVAAISDSGGSTYYADSVKGRFTMSRDNAKNTVSLPMNSLKPEDTAVYYCNADWSWYNYYDFDYWGQGTQVTVSS", "Test value": "low polyreactivity"}

Measured values drawn from the nanobody polyreactivity screen of Harvey et al. (2022) for this set.
